This collection of values is drawn from patent EP4741383A1.

Here, each record is paired with measured IC50 data.
Molecular target: SHP2 enzyme (catalytic domain, amino acid sequence 224-528) (Homo sapiens, UniProt Q06124)
Construct: purchased GenScript
Sequence (Q06124 224-528): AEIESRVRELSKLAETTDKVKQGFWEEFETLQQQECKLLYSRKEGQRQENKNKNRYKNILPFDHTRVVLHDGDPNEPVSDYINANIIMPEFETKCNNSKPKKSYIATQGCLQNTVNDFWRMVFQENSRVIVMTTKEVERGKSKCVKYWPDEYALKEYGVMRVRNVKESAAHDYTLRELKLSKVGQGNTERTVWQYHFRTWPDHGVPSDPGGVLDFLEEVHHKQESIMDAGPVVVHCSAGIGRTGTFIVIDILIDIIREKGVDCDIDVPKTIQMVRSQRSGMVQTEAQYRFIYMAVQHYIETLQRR
Experiment: SHP2 enzyme inhibition assay (DiFMUP substrate, fluorescence)
Type: biochemical
Settings: SHP2 catalytic domain, DiFMUP substrate, 30 min pre-incubation; read-out: S HP2 I C50
# number only, unit nM dropped from output

Examples from the recorded data:
- Compound: "O=C(Nc1ccc(-c2cc3cc(F)c(-c4nnn[nH]4)cc3n2C2CCC2)cc1)C(=O)Nc1ccc(N2CCC(C(O)C(F)(F)F)CC2)cc1 (stereo not drawn) [Example 32]"
  Unit abbreviation: "nM"
  IC50: 61
- Compound: "CC1(O)CCC2(CCN(c3ccc(NC(=O)C(=O)Nc4ccc(-c5cc6cc(F)c(-c7nnn[nH]7)cc6n5C5CCC5)cc4)cc3)CC2)C1 (stereo not drawn) [Example 104]"
  Unit abbreviation: "nM"
  IC50: 70
- Compound: "CC(C)(O)C1CCN(c2ccc(NC(=O)C(=O)Nc3ccc(-c4cc5cc(F)c(-c6nnn[nH]6)cc5n4C4(C)CCC4)cc3)cc2)CC1 [Example 34]"
  Unit abbreviation: "nM"
  IC50: 72
- Compound: "CC1(O)CCC2(CCN(c3ccc(NC(=O)C(=O)Nc4ccc(-c5cc6cc(F)c(-c7nnn[nH]7)cc6n5C5(C)CCC5)cc4)cc3)CC2)CC1 [Example 111]"
  Unit abbreviation: "nM"
  IC50: 94
- Compound: "CC1(n2c(-c3ccc(NC(=O)C(=O)Nc4ccc(N5CCC(CO)CC5)cc4)cc3)cc3cc(F)c(-c4nnn[nH]4)cc32)CCC1 [Example 24]"
  Unit abbreviation: "nM"
  IC50: 271

# query: IC50 | item CC(C)(O)C1CCN(c2ccc(NC(=O)C(=O)Nc3ccc(-c4cc5cc(F)c(-c6nnn[nH]6)cc5n4CC4CCC4)cc3)cc2)CC1 [Example 38] | system: SHP2 enzyme (catalytic domain, amino acid sequence 224-528) (Homo sapiens, UniProt Q06124) 112

# query: IC50 | item CC1(n2c(-c3ccc(NC(=O)C(=O)Nc4ccc(N5CCC6(CC(O)C6)C5)cc4)cc3)cc3cc(F)c(-c4nnn[nH]4)cc32)CCC1 (stereo not drawn) [Example 90] | system: SHP2 enzyme (catalytic domain, amino acid sequence 224-528) (Homo sapiens, UniProt Q06124) 139

# query: IC50 | item O=C(Nc1ccc(-c2cc3cc(F)c(-c4nnn[nH]4)cc3n2C23CC(C2)C3)cc1)C(=O)Nc1ccc(N2CCC3(CCOC3)CC2)cc1 [Example 71] | system: SHP2 enzyme (catalytic domain, amino acid sequence 224-528) (Homo sapiens, UniProt Q06124) 50

# query: IC50 | item O=C(Nc1ccc(-c2cc3cc(F)c(-c4nnn[nH]4)cc3n2C2CCC2)cc1)C(=O)Nc1ccc(N2CCC(CCO)CC2)cc1 [Example 25] | system: SHP2 enzyme (catalytic domain, amino acid sequence 224-528) (Homo sapiens, UniProt Q06124) 59

# query: IC50 | item CC1(O)CC2CN(c3ccc(NC(=O)C(=O)Nc4ccc(-c5cc6cc(F)c(-c7nnn[nH]7)cc6n5C5(C)CCC5)cc4)cc3)CC2C1 (stereo not drawn) [Example 118] | system: SHP2 enzyme (catalytic domain, amino acid sequence 224-528) (Homo sapiens, UniProt Q06124) 45

# query: IC50 | item O=C(Nc1ccc(-c2cc3cc(F)c(-c4nnn[nH]4)cc3n2C2CCC2)cc1)C(=O)Nc1ccc(N2CCOCC2)cc1 [Example 47] | system: SHP2 enzyme (catalytic domain, amino acid sequence 224-528) (Homo sapiens, UniProt Q06124) 63

# query: IC50 | item O=C(Nc1ccc(-c2cc3cc(F)c(-c4nnn[nH]4)cc3n2C2CCC2)cc1)C(=O)Nc1ccc(N2CC3(CCCOC3)C2)cc1 [Example 55] | system: SHP2 enzyme (catalytic domain, amino acid sequence 224-528) (Homo sapiens, UniProt Q06124) 45
